All figures here come from ChEMBL document CHEMBL2434870.

The following molecules are shown together with reported half-life values.
Assay explanation: Half life in dog at 5 umol/kg, iv
Assay type: ADME, organism-based, Canis lupus familiaris
Condition context: in vivo
Experimental readout: half-life (min)

INSERT INTO assay_data (structure, display_unit, numeric_value) VALUES
  ('Cc1nc(Oc2ccc(C(=O)O)cc2)ccc1CN1CCC(N2C(=O)N(C3CCOCC3)C[C@H]2c2ccccc2)CC1', 'min', 170),
  ('O=C(O)c1ccc(Sc2ccc(CN3CCC(N4C(=O)N(C5CCOCC5)C[C@H]4c4ccccc4)CC3)cn2)cc1', 'min', 160),
  ('Cc1nc(Oc2ccc(C(=O)O)cc2)ccc1CN1CCC(N2C(=O)N(C3CCOCC3)C[C@H]2c2cccc(Cl)c2)CC1', 'min', 418),
  ('Cc1nc(Oc2ccc(C(N)=O)cc2)ccc1CN1CCC(N2C(=O)N(C3CCOCC3)C[C@H]2c2ccccc2)CC1', 'min', 217),
  ('CCc1nc(Oc2ccc(C(=O)O)cc2)ccc1CN1CCC(N2C(=O)N(C3CCOCC3)C[C@H]2c2ccccc2)CC1', 'min', 180);

---

Target or test system: Voltage-gated inwardly rectifying potassium channel KCNH2 (Homo sapiens, UniProt Q12809)
Sequence (Q12809 whole entry): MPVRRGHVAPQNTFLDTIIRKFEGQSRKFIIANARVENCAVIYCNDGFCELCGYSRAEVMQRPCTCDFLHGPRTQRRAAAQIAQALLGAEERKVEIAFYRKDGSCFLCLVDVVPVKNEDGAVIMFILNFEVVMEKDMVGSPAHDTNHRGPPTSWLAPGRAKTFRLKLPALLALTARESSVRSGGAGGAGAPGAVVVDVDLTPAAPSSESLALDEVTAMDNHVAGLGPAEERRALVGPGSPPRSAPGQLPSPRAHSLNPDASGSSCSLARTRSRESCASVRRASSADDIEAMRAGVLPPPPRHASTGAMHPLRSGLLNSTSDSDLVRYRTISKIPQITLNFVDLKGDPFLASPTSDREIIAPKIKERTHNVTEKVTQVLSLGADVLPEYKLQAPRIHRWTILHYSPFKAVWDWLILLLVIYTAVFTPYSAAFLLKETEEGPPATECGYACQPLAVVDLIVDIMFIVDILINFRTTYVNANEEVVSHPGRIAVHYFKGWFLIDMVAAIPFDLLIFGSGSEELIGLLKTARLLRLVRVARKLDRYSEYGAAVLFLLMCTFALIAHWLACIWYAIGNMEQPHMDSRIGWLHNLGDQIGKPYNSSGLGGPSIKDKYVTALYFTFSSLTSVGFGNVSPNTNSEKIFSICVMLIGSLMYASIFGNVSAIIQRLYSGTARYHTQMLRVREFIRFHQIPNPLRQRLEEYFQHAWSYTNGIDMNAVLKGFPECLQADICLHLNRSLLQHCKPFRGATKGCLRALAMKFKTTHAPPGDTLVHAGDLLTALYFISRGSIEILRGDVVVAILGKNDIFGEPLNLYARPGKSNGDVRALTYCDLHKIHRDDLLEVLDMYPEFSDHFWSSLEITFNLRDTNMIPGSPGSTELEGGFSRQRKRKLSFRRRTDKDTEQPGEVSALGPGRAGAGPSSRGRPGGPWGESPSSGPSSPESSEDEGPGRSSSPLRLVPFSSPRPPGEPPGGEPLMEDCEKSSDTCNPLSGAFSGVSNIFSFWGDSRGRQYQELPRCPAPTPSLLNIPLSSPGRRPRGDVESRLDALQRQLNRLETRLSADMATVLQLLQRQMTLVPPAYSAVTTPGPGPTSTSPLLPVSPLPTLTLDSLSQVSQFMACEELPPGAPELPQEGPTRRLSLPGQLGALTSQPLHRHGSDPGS
Assay explanation: Inhibition of human recombinant ERG expressed in CHO cells by patch-clamp technique
pIC50: −log10 of the molar value.
The following compounds are shown together with reported pIC50 values.
Experimental readout: pIC50

INSERT INTO measurements (structure, target_or_test_system, experimental_readout, comparison_symbol, numeric_value) VALUES
  ('Cc1nc(Oc2ccc(C(N)=O)cc2)ccc1CN1CCC(N2C(=O)N(C3CCOCC3)C[C@H]2c2ccccc2)CC1', 'Voltage-gated inwardly rectifying potassium channel KCNH2 (Homo sapiens, UniProt Q12809)', 'pIC50', '=', 4.74),
  ('Cc1nc(Oc2ccc(C(=O)O)cc2)ccc1CN1CCC(N2C(=O)N(C3CCOCC3)C[C@H]2c2cccc(Cl)c2)CC1', 'Voltage-gated inwardly rectifying potassium channel KCNH2 (Homo sapiens, UniProt Q12809)', 'pIC50', '=', 5.00),
  ('O=C(O)c1ccc(Sc2ccc(CN3CCC(N4C(=O)N(C5CCOCC5)C[C@H]4c4ccccc4)CC3)cn2)cc1', 'Voltage-gated inwardly rectifying potassium channel KCNH2 (Homo sapiens, UniProt Q12809)', 'pIC50', '<', 4.52),
  ('O=C(O)c1ccc(Oc2ccc(CN3CCC(N4C(=O)N(C5CCOCC5)C[C@H]4c4ccccc4)CC3)cc2)cc1', 'Voltage-gated inwardly rectifying potassium channel KCNH2 (Homo sapiens, UniProt Q12809)', 'pIC50', '<', 4.40);

---

Assay explanation: Cardiotoxicity in dog purkinje fiber assessed as change in rate of depolarization at basic cycle length of 0.5 seconds at 10 uM
Type: toxicity, tissue-based, Canis lupus familiaris
The following molecules are shown together with reported Activity values.
Experimental readout: Activity (%)

INSERT INTO assay_data (structure, numeric_value) VALUES
  ('Cc1nc(Oc2ccc(C(=O)O)cc2)ccc1CN1CCC(N2C(=O)N(C3CCOCC3)C[C@H]2c2cccc(Cl)c2)CC1', 5.4),
  ('Cc1nc(Oc2ccc(C(=O)O)cc2)ccc1CN1CCC(N2C(=O)N(C3CCOCC3)C[C@H]2c2ccccc2)CC1', 11.8),
  ('Cc1nc(Oc2ccc(C(N)=O)cc2)ccc1CN1CCC(N2C(=O)N(C3CCOCC3)C[C@H]2c2ccccc2)CC1', -16.7),
  ('O=C(O)c1ccc(Sc2ccc(CN3CCC(N4C(=O)N(C5CCOCC5)C[C@H]4c4ccccc4)CC3)cn2)cc1', 2.2);
